This listing pairs compounds with measured IC50.
- Test system: HFL1
- Assay Text: Cell-based assay, anti-proliferative activity (Cell Counting Kit-8, 72 hours)
- Condition Details: Homo sapiens, HFL1, 72 h, read-out: IC50 (μM) HFL1
Where a name gives a salt, the structure may show the parent alone.
Outcome Measure: IC50 (µM)

COc1cc(OC)c(-c2cn3cc(NCCN)c(C)cc3n2)cc1Cl    2.7
CNCC(=O)Nc1ccc(-c2ccn3cc(-c4cc(Cl)c(OC)cc4OC)nc3c2)cc1 [Example 273, hydrochloride]    1.2
COc1cc(OC)c(-c2cn3ccc(N4CCC(N)C4)nc3n2)cc1Br (stereo not shown) [Example 19, hydrochloride]    4.2
COc1cc(OC)c(-c2cn3ccc(N4CCC(O)C4)cc3n2)cc1Br (stereo not shown)    6.8
COc1cc(OC)c(-c2cn3ccc(N4CCC(CCN)CC4)cc3n2)cc1Cl [Example 72, dihydrochloride]    3.7
COc1cc(OC)c(-c2cn3ccc(N4CCC(N)CC4)nc3n2)cc1Cl [Example 42, hydrochloride]    4.2
COc1cc(OC)c(-c2cn3ccc(NCCN)cc3n2)cc1Cl [Example 10, dihydrochloride]    3.7

These measurements were taken from patent US10508109B2.
